// data source = patent US9555021B2

Biological target: alpha-1B adrenergic receptor (Homo sapiens)
Sequence (P35368 whole entry): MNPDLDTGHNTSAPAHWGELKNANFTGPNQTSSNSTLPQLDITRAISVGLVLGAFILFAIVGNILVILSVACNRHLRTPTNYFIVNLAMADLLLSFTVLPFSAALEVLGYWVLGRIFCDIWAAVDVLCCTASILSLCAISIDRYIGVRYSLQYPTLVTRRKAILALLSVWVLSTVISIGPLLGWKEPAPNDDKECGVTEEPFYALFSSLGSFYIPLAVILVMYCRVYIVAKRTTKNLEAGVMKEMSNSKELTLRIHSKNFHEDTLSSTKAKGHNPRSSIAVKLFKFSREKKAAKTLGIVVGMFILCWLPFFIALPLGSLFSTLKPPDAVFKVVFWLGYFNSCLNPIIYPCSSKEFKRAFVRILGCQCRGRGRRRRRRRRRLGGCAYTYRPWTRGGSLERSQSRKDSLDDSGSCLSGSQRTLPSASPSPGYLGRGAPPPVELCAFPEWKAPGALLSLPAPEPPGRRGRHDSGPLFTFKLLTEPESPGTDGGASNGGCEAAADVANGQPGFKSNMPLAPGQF
Experiment: FLIPR assay (intracellular calcium), alpha-1B adrenergic receptor
Conditions: second line of cell; unit inferred; read-out: α-1B antagonism IC50
MEASURED_QUANTITY: IC50

- MOLECULE: "Cc1c(CO)cccc1[C@@H](C)c1c[nH]cn1"
  TGT: "alpha-1B adrenergic receptor (Homo sapiens)"
  MEASURED_QUANTITY: "IC50"
  RECORDED_MEASUREMENT: "> 8.3 µM"

Pending molecule:
Consider the molecule Cc1c(CO)cccc1C(C)c1c[nH]cn1 (racemic) and give its recorded IC50.
> 8.3 µM

====

Biological target: alpha-2A adrenergic receptor (Homo sapiens)
Experiment: FLIPR assay (intracellular calcium), alpha-2A adrenergic receptor
Conditions: first line of cell; unit inferred, compounds tested at 0.64 nM-10,000 nM; read-out: α-2A agonism EC50
Each item that follows carries a reported pEC50.
Scale: negative log10 of molar concentration, which is what pEC50 denotes.

- COMPOUND: "Cc1c(CO)cccc1[C@H](C)c1c[nH]cn1 [Compound III]"
  RECORDED_MEASUREMENT: 7.14

Please give measured pEC50 of the following entry: Cc1c(CO)cccc1C(C)c1c[nH]cn1 (racemic) [Compound I]
7.27

====

compounds and their reported pEC50
Biological target: alpha-2C adrenergic receptor (Homo sapiens, UniProt P18825)
Sequence (P18825 whole entry): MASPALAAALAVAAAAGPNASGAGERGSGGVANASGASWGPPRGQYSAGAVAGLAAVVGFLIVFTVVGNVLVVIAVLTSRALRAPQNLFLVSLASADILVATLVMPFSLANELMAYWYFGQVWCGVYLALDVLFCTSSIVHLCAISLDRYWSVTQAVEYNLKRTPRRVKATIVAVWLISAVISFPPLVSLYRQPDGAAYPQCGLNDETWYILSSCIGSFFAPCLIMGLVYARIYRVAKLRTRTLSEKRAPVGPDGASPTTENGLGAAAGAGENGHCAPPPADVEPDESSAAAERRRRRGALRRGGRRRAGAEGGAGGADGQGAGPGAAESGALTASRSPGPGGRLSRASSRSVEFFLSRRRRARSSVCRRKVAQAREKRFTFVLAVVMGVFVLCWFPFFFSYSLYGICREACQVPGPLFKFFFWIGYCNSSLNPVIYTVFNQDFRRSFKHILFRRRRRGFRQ
Assay: FLIPR assay (intracellular calcium), alpha-2C adrenergic receptor
Settings: first line of cell; unit inferred, compounds tested at 0.64 nM-10,000 nM; read-out: α-2C agonism EC50
The read-out pEC50 is expressed as -log10 of concentration in moles per litre.

Known results for compounds:
- COMPOUND: "Cc1c(CO)cccc1[C@H](C)c1c[nH]cn1"
  pEC50: 8.10
- COMPOUND: "Cc1c(CO)cccc1C(C)c1c[nH]cn1 (racemic)"
  pEC50: 7.80

# input for lookup
Provide only the value of recorded pEC50 for Cc1c(CO)cccc1[C@@H](C)c1c[nH]cn1
6.77

====

Biological target: alpha-1A adrenergic receptor (Homo sapiens)
Sequence (P35348 whole entry): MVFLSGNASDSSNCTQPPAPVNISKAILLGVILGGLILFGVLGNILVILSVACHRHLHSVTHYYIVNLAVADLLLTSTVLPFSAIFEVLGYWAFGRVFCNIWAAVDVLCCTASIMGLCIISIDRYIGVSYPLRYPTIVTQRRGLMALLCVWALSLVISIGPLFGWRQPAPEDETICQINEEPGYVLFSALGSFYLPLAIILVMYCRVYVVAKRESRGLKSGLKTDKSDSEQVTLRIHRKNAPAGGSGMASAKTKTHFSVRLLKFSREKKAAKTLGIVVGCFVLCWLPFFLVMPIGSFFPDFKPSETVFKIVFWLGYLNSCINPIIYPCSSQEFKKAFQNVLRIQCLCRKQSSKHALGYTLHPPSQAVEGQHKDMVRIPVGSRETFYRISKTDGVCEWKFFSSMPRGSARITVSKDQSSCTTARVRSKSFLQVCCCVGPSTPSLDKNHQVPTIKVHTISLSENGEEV
Experiment: FLIPR assay (intracellular calcium), alpha-1A adrenergic receptor
Conditions: first line of cell; HEK 293 cells; unit inferred, compounds tested at 0.64 nM-10,000 nM; read-out: α-1A agonism EC50
MEASURED_QUANTITY: pEC50
Schema: pEC50 number; meaning minus log10 of the concentration expressed in molar units.

- COMPOUND: "Cc1c(CO)cccc1[C@H](C)c1c[nH]cn1"
  RECORDED_MEASUREMENT: 6.35

// next entry
Write down pEC50 measured for item Cc1c(CO)cccc1C(C)c1c[nH]cn1 (racemic)
5.79

====

Biological target: alpha-2A adrenergic receptor (Homo sapiens, UniProt P08913)
Sequence (P08913 whole entry): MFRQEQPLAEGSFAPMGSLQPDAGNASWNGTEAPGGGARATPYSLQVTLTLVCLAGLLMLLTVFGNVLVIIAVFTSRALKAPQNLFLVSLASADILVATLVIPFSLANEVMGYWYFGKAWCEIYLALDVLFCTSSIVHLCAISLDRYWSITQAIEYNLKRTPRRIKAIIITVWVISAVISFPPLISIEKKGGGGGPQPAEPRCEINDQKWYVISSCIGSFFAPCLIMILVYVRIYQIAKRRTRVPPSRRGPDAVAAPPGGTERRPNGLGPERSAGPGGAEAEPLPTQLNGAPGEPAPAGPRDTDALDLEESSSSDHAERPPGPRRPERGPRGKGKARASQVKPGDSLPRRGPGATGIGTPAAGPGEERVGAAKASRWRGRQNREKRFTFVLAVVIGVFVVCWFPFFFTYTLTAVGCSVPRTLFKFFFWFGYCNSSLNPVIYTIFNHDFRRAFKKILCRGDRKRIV
Experiment: FLIPR assay (intracellular calcium), alpha-2A adrenergic receptor
Conditions: second line of cell; unit inferred; read-out: α-2A antagonism IC50
MEASURED_QUANTITY: pIC50
Note on pIC50: it is the negative log10 of concentration, concentration in mol/L.

Please report the measured pIC50 for Cc1c(CO)cccc1[C@@H](C)c1c[nH]cn1 [Compound II]
6.84
